ASSAY SYSTEM: T1, human latent myostatin (human, UniProt O14793 25-266; O14793 267-375)
T1 construct: non-covalent complex of two propeptides and the mature homodimer; also called human myostatin latent form
T1 sequence 1: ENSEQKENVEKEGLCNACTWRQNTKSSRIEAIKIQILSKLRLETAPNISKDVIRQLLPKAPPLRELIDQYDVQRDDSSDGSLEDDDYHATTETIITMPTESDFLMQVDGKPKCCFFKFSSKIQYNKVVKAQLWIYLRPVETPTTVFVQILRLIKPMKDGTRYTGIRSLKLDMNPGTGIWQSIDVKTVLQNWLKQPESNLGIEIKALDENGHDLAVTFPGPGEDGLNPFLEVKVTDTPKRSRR
T1 sequence 2: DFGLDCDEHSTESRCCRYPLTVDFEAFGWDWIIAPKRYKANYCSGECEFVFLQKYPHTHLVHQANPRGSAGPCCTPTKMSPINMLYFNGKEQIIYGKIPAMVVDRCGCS
MEASUREMENT DESCRIPTION: SPR affinity condition pH7.4 37C
OUTCOME MEASURE: kon (M⁻¹ s⁻¹)
Give just the number in M⁻¹ s⁻¹; leave the unit off.

// query // fetch kon given entry MS_M103205H781-SG1/M103202L813-SK1 (antibody, human IgG1, kappa, V domains shown, also called MS1032LO03-SG1) VH: QVTLKESGPVLVKPTETLTLTCTVSGIDLSHTDISWVRQAPGKGLEWVGIISYAGSTYYMSWAKGRLTISKDTSKNQVVLTMTNMDPVDTATYYCARGVPAYSHGGDLWGQGTLVTVSS VL: DIVMTQSPATLSLSPGERATLSCQTSQSVYHDNWLSWFQQKPGQPPKLLIYWASTLASGVPSRFSGSGSGTDFTLTISSLQPEDAATYYCAGGYGGGRYAFGQGTKVEIKR
// result 1.08e+06

// query Using known records, supply kon for MS_M103205H714-SG1/M103202L861-SK1 (antibody, human IgG1, kappa, V domains shown, also called MS1032LO01-SG1) VH: QVTLKESGPVLVKPTETLTLTCTVSGIDLSHTDISWVRQAPGKGLEWVGIISYAGSTYYASWAKGRLTISKDTSKNQVVLTMTNMDPVDTATYYCARGVPAYSHGGDLWGQGTLVTVSS VL: DIVMTQSPATLSLSPGERATLSCTSSQSVYHNNWLSWFQQKPGQPPKLLIYWASTLAYGVPSRFSGSGSGTDFTLTISSLQPEDAATYYCAGGYGGGRYAFGQGTKVEIKR
// result 1.64e+06

// query Note down kon recorded for MS_M103205H781-SG1/M103202L719-SK1 (antibody, human IgG1, kappa, V domains shown, also called MS1032LO02-SG1) VH: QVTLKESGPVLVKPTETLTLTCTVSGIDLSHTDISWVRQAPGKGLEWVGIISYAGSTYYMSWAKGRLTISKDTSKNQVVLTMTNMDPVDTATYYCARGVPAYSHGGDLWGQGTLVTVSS VL: DIVMTQSPATLSLSPGERATLSCQSSQSVYHNNWLSWFQQKPGQPPKLLIYWASTLAFGVPSRFSGSGSGTDFTLTISSLQPEDAATYYCAGGYGGGLYAFGQGTKVEIKR
// result 1.08e+06

// query Report kon for MS_M103205H707-SG1/M103202L802-SK1 (antibody, human IgG1, kappa, V domains shown, also called MS1032LO04-SG1) VH: QVTLKESGPVLVKPTETLTLTCTVSGIDLSHYDISWVRQAPGKGLEWVGIISYAGSTYYASWAKGRLTISKDTSKNQVVLTMTNMDPVDTATYYCARGVPAYSHGGDLWGQGTLVTVSS VL: DIVMTQSPATLSLSPGERATLSCTSSQSVYHDNWLSWFQQKPGQPPKLLIYWASTLAYGVPSRFSGSGSGTDFTLTISSLQPEDAATYYCAGGYGGGLYAFGQGTKVEIKR
// result 1.54e+06
